These entries and their values trace back to PubChem BioAssay AID330.

System: P388 leukemia ip, CD2F1 mice, survival T/C
Assay: NCI In Vivo Anticancer Drug Screen. Data for tumor model P388 Leukemia (intraperitoneal) in CD2F1 (CDF1) mice
Conditions: endpoint: median survival time; dose: 100.0 mg/kg/injection; schedule: Q01DX009 (ip); vehicle: saline
Toxic doses and inconclusive results are not listed. Rule for the calls: active = survival T/C of 150% or more; inactive = T/C below 125% in these data.
Just give me one of these, please: 1 = active, 0 = inactive

Inquiry: Given CCO/C=N\Nc1ccc2nnc(Cl)n2n1 , state the outcome it received in this test.
Reply text: 0

Inquiry: Given COC(OC(CO)C(O)S(=O)(=O)O)C(O)S(=O)(=O)O (configuration not stated) , state the outcome it received in this test.
Reply text: 1

Inquiry: Given CN(C)C(=O)n1ccc(NC=O)n1 , state the outcome it received in this test.
Reply text: 0

Inquiry: Given COC(=O)c1ccc(/C=C/C#N)cc1 , state the outcome it received in this test.
Reply text: 0

Inquiry: Given CSc1ccc(NC(=S)SC(C)C)cc1Cl , state the outcome it received in this test.
Reply text: 0

Inquiry: Given [Cl][Eu][Cl] , state the outcome it received in this test.
Reply text: 0

Inquiry: Given C=C(C)C(=NC(C)(C)C)Nc1cccc(Cl)c1 , state the outcome it received in this test.
Reply text: 0

Inquiry: Given Cc1cccc(NC(=O)NC2CCCC(C)C2)c1 (configuration not stated) , state the outcome it received in this test.
Reply text: 0

Inquiry: Given CN1c2ccccc2C(C)(C)C12C=Cc1cc(O)ccc1O2 (configuration not stated) , state the outcome it received in this test.
Reply text: 0

Inquiry: Given Cc1cccc(=O)n1C , state the outcome it received in this test.
Reply text: 0

Inquiry: Given OCC1(O)OCC(O)C(O)C1O (configuration not stated) , state the outcome it received in this test.
Reply text: 0

Inquiry: Given O=[N+]([O-])O.[Al] , state the outcome it received in this test.
Reply text: 0

* * *

Can you tell me T/C for the items I'm about to list?
Test system: P388 leukemia ip, CD2F1 mice, survival T/C
Test: NCI In Vivo Anticancer Drug Screen. Data for tumor model P388 Leukemia (intraperitoneal) in CD2F1 (CDF1) mice
Settings: endpoint: median survival time; dose: 120.0 mg/kg/injection; schedule: Q01DX005 (ip); vehicle: Klucel (hydroxypropylcellulose) (HPC); higher = longer survival
Method: The antitumor activity of compounds was measured in mice bearing transplantable tumors. Survival or tumor size were measured and the results are expressed as the measurement made in the treated group (T) divided by the measurement made in the vehicle treated control group (C). The tumor model used in this assay is P388 Leukemia (intraperitoneal) in CD2F1 (CDF1) mice
Toxic doses and inconclusive results are not listed.

Inquiry: GET /values?readout=T/C&system=P388 leukemia ip, CD2F1 mice, survival T/C&item= O=C(NCCO)c1ccc(O)cc1O
Reply text: 120 % of control

Inquiry: GET /values?readout=T/C&system=P388 leukemia ip, CD2F1 mice, survival T/C&item= Cc1ccccc1/C(=C/c1ccc([N+](=O)[O-])cc1)C(=O)O
Reply text: 108 % of control

Inquiry: GET /values?readout=T/C&system=P388 leukemia ip, CD2F1 mice, survival T/C&item= Cn1c(N=P(c2ccccc2)(c2ccccc2)c2ccccc2)cc(=O)n(C)c1=O
Reply text: 102 % of control

Inquiry: GET /values?readout=T/C&system=P388 leukemia ip, CD2F1 mice, survival T/C&item= O=C1Nc2ccccc2C1=Nc1ccc2[nH]c3ccccc3c2c1
Reply text: 93 % of control

Inquiry: GET /values?readout=T/C&system=P388 leukemia ip, CD2F1 mice, survival T/C&item= CC(=S)N(c1ccccc1)c1ccccc1
Reply text: 96 % of control

Inquiry: GET /values?readout=T/C&system=P388 leukemia ip, CD2F1 mice, survival T/C&item= CCCCCCCCCCCCCCCCCSc1c(O)c(O)c2cccnc2c1O (tested in a mixture with another compound)
Reply text: 105 % of control

Inquiry: GET /values?readout=T/C&system=P388 leukemia ip, CD2F1 mice, survival T/C&item= COc1cccc(C2c3cc4c(cc3OC(C)(N3CCCC3)C2C)OCO4)c1OC (stereo not given)
Reply text: 88 % of control

Inquiry: GET /values?readout=T/C&system=P388 leukemia ip, CD2F1 mice, survival T/C&item= O=C(O)c1cnc2cc3c(cc2c1Nc1cccc(C(F)(F)F)c1)OCO3
Reply text: 96 % of control

Inquiry: GET /values?readout=T/C&system=P388 leukemia ip, CD2F1 mice, survival T/C&item= N#Cc1ccc(-c2nc3ncnc(N)c3[nH]2)cc1
Reply text: 90 % of control

Inquiry: GET /values?readout=T/C&system=P388 leukemia ip, CD2F1 mice, survival T/C&item= O=C(NC1(N2CCOCC2)CC1)c1ccc(Cl)cc1
Reply text: 103 % of control

* * *

Can you tell me T/C for the items I'm about to list?
System: P388 leukemia ip, CD2F1 mice, survival T/C
Assay: NCI In Vivo Anticancer Drug Screen. Data for tumor model P388 Leukemia (intraperitoneal) in CD2F1 (CDF1) mice
Conditions: endpoint: median survival time; dose: 50.0 mg/kg/injection; schedule: Q01DX005 (ip); vehicle: Klucel (hydroxypropylcellulose) (HPC); higher = longer survival
Procedure: The antitumor activity of compounds was measured in mice bearing transplantable tumors. Survival or tumor size were measured and the results are expressed as the measurement made in the treated group (T) divided by the measurement made in the vehicle treated control group (C). The tumor model used in this assay is P388 Leukemia (intraperitoneal) in CD2F1 (CDF1) mice
Toxic doses and inconclusive results are not listed.

Inquiry: Need T/C of COc1ccc(/C=C/C(=O)c2ccccc(=O)c2O)c(OC)c1 , thanks.
Reply text: 98 % of control

Inquiry: Need T/C of C=C(Cl)C(=NC(C)(C)C)Nc1ccc(Cl)cc1 , thanks.
Reply text: 110 % of control

Inquiry: Need T/C of CCOC(=O)/C(C#N)=C/NCCc1c[nH]c2ccccc12 , thanks.
Reply text: 102 % of control

* * *

Tested on: P388 leukemia ip, CD2F1 mice, survival T/C
Test: NCI In Vivo Anticancer Drug Screen. Data for tumor model P388 Leukemia (intraperitoneal) in CD2F1 (CDF1) mice
Details: endpoint: median survival time; dose: 25.0 mg/kg/injection; schedule: Q01DX009 (ip); vehicle: saline with Tween-80
Toxic doses and inconclusive results are not listed. How the source made its calls: active means survival T/C of 150% or more; inactive means T/C below 125% in these data.
Just give me one of these, please: yes (1) for active, no (0) for inactive

Inquiry: Given CCCCN(C)N=Nc1ccccc1C(N)=O , state the outcome it received in this test.
Reply text: no (0)

Inquiry: Given c1ccc(-c2nnn(-c3ccccc3)n2)cc1 , state the outcome it received in this test.
Reply text: no (0)

Inquiry: Given Clc1[nH]nc2ccccc12 , state the outcome it received in this test.
Reply text: no (0)

Inquiry: Given Oc1ccccc1C=Nc1cccnc1 , state the outcome it received in this test.
Reply text: no (0)

Inquiry: Given COc1cc(C(=O)NC2CC2)cc(OC)c1OC , state the outcome it received in this test.
Reply text: no (0)

Inquiry: Given CS(C)=NC(=Nc1ccc(Cl)cc1)c1ccccc1 , state the outcome it received in this test.
Reply text: no (0)

Inquiry: Given Cc1ccc(S(=O)(=O)N(Cc2ccccc2)S(=O)(=O)c2ccc(C)cc2)cc1 , state the outcome it received in this test.
Reply text: no (0)

Inquiry: Given C#Cc1cccc(N=Cc2ccc(C=Nc3cccc(C#C)c3)cc2)c1 , state the outcome it received in this test.
Reply text: no (0)

Inquiry: Given O=C(O)C1Cc2nc[nH]c2CN1CO (stereo not drawn) , state the outcome it received in this test.
Reply text: no (0)

Inquiry: Given NS(=O)(=O)/C=C(\Cl)c1ccccc1 , state the outcome it received in this test.
Reply text: no (0)

Inquiry: Given O=C1C(Br)=CC(=NCl)C=C1Br , state the outcome it received in this test.
Reply text: no (0)

Inquiry: Given O=C1c2ccccc2C(=Cc2cccnc2)c2ccccc21 , state the outcome it received in this test.
Reply text: no (0)

Inquiry: Given c1ccc2c(Nc3ccc(C4=NCCN4)cc3)nnc(Nc3ccc(C4=NCCN4)cc3)c2c1 , state the outcome it received in this test.
Reply text: yes (1)

Inquiry: Given COc1c2occc2c(S(N)(=O)=O)c2ccc(=O)oc12 , state the outcome it received in this test.
Reply text: no (0)

Inquiry: Given Cc1cccc(Nc2c(N)nc(N)nc2N)c1 , state the outcome it received in this test.
Reply text: no (0)

Inquiry: Given CC(=O)Oc1[nH]c(=O)c2cccc3c2c1CCC3 , state the outcome it received in this test.
Reply text: no (0)

Inquiry: Given CC12CC[C]([Hg][I])(CC1)C2(C)C , state the outcome it received in this test.
Reply text: no (0)

Inquiry: Given CC(C)N1CSC(=S)N(Cc2ccccc2)C1 , state the outcome it received in this test.
Reply text: no (0)
